Tested on: MCF7
assay.text: Cell proliferation assay (CellTiter Glo), MCF7
Assay type: cell-based
reported.conditions: Homo sapiens, MCF7, 72 h; 3 Day assay, complete medium (10% FCS); read-out: IC50 (uM) 10% FCS
quantity.kind: IC50

The reported MCF7 IC50 of COc1cc(Nc2c(C#N)cnc3cc(OCCCN4CCN(C)CC4)c(OC)cc23)c(Cl)cc1Cl is 6.5 µM

====

Tested on: MDA-MB-231 (ER neg)
assay.text: Cell proliferation assay (CellTiter Glo), MDA-MB-231
Assay type: cell-based
reported.conditions: Homo sapiens, MDA-MB-231, 72 h; 3 Day assay, complete medium (10% FCS); read-out: IC50 (uM) 10% FCS
quantity.kind: IC50 (µM)
Field format: number, assumed µM, no unit text.

Short answer for COc1cc(Nc2c(C#N)cnc3cc(OCCCN4CCN(C)CC4)c(OC)cc23)c(Cl)cc1Cl : IC50 was 4.3

Source listed as patent US20100069340A1.
